The origin of these recorded values is paper PMC6832952.

- Tested on: P-gp
- measurement_notes: Growth inhibition assay, P-gp overexpressing SW1573/PGP
- assay_context: human
recorded_endpoint: log10 of GI50 at 48 h (log10 of the value in µM)
A value of 2 here means GI50 at 48 h of 100 in µM, since values are log10.

Ask: Tell me the measured log10 of GI50 at 48 h of CC[C@]1(O)C[C@@H]2CN(CCc3c([nH]c4ccccc34)[C@@](C(=O)OC)(c3cc4c(cc3OC)N(C)[C@H]3[C@@](O)(C(=O)OC)[C@H](OC(C)=O)[C@]5(CC)C=CCN6CC[C@]43[C@@H]65)C2)C1 [VB, vinblastine, reference compound] , please.
Result: 0.31

Ask: Now try C[C@]12CCC3C(CC=C4C[C@@H](O)CC[C@@]43C)C1CCC2C1=CC(c2ccccc2)NC(=N)N1 (some centres unmarked) .
Result: 1.00

Ask: Now try C[C@]12CCC3C(CC=C4C[C@@H](O)CC[C@@]43C)C1CCC2C1=CC(c2ccccc2)NC(=O)N1 (some centres unmarked) .
Result: 1.53

Ask: Now try "C[C@]12CC[C@H]3[C@@H](CC=C4C[C@@H](O)CC[C@@]43C)[C@@H]1CC[C@@H]2C(=O)/C=C/c1ccccc1" .
Result: 1.46

Ask: Now try CC1=C2C(CC3C4CC=C5C[C@@H](O)CC[C@]5(C)C4CC[C@]23C)NC(=S)N1 (some centres unmarked) .
Result: 1.20

Ask: Now try CC(=O)O[C@H]1C(=O)[C@@]2(C)[C@H]([C@H](OC(=O)c3ccccc3)[C@]3(O)C[C@H](OC(=O)[C@H](O)[C@@H](NC(=O)c4ccccc4)c4ccccc4)C(C)=C1C3(C)C)[C@]1(OC(C)=O)CO[C@@H]1C[C@@H]2O [PTX, Paclitaxel, reference compound] .
Result: -0.71

Ask: Now try CC1=C2C(CC3C4CC=C5C[C@@H](O)CC[C@]5(C)C4CC[C@]23C)NC(=O)N1 (some centres unmarked) .
Result: 1.69

Ask: Now try C[C@]12CCC3C(CC=C4C[C@@H](O)CC[C@@]43C)C1CCC2C1=CC(c2ccccc2)NC(=S)N1 (some centres unmarked) .
Result: 1.58
